The reported numbers originate from patent US20090041839A1.

# protocol_description: Multiple escalating dose pharmacokinetic study of T-62 soft gelatin capsules (Example 12)
# Type: in vivo
# reported_conditions: both sexes, human, plasma, po, 200 mg, Steady state (Day 6), 2 × 100 mg BID (oral dosage form 4), healthy adults; arithmetic mean (SD); n = 9
property_measured: AUC(0-inf) (ng·h/mL)
Answer with a number only, understood to be in ng·h/mL.

The molecule listed as Nc1sc2c(c1C(=O)c1ccc(Cl)cc1)CCCC2 [T-62] has a reported AUC(0-inf) of 995

* * *

# protocol_description: Single escalating dose, age and food-effect pharmacokinetic study of T-62 soft gelatin capsules (Example 11)
# Assay type: in vivo
# reported_conditions: human, plasma, po, 1200 mg, Part A, young healthy subjects, fasted; single oral dose 12 × 100 mg (oral dosage form 4); arithmetic mean (SD); n = 9; read-out: AUC0-48
property_measured: AUC(0-t) (ng·h/mL)
The figure you give is taken to be in ng·h/mL; do not add the unit.

Quick note, AUC(0-t) for Nc1sc2c(c1C(=O)c1ccc(Cl)cc1)CCCC2 landed at 1110

* * *

# protocol_description: Multiple escalating dose pharmacokinetic study of T-62 soft gelatin capsules (Example 12)
# Type: in vivo
# reported_conditions: both sexes, human, plasma, po, 100 mg, Day 1, single dose 100 mg (oral dosage form 4), healthy adults; arithmetic mean (SD); n = 8
property_measured: AUC(0-inf) (ng·h/mL)
Supply the numeric figure in ng·h/mL, leaving out any unit text.

Just so you know, measured AUC(0-inf) for Nc1sc2c(c1C(=O)c1ccc(Cl)cc1)CCCC2 [T-62] came out at 96.9

* * *

# protocol_description: Multiple escalating dose pharmacokinetic study of T-62 soft gelatin capsules (Example 12)
# Type: in vivo
# reported_conditions: both sexes, human, plasma, po, 100 mg, Day 1, single dose 100 mg (oral dosage form 4), healthy adults; τ = 12 hours; arithmetic mean (SD); n = 8; read-out: AUC0-τ
property_measured: AUC

// recorded AUC for Nc1sc2c(c1C(=O)c1ccc(Cl)cc1)CCCC2 : 89.5 ng·h/mL

* * *

# protocol_description: Single escalating dose, age and food-effect pharmacokinetic study of T-62 soft gelatin capsules (Example 11)
# Assay type: in vivo
# reported_conditions: human, plasma, po, 400 mg, Part A, young healthy subjects, fasted; single oral dose 4 × 100 mg (oral dosage form 4); arithmetic mean (SD); n = 9; read-out: AUC0-48
property_measured: AUC(0-t) (ng·h/mL)
Write the number in ng·h/mL without appending the unit.

Short answer for Nc1sc2c(c1C(=O)c1ccc(Cl)cc1)CCCC2 [T-62] : AUC(0-t) was 525

* * *

# protocol_description: Single escalating dose, age and food-effect pharmacokinetic study of T-62 soft gelatin capsules (Example 11)
# Format: in vivo
# reported_conditions: human, plasma, po, 800 mg, Part A, young healthy subjects, fasted; single oral dose 8 × 100 mg (oral dosage form 4); arithmetic mean (SD); n = 9
property_measured: AUC(0-inf) (ng·h/mL)
Numeric only. Scale: ng·h/mL

AUC(0-inf) reported for this molecule Nc1sc2c(c1C(=O)c1ccc(Cl)cc1)CCCC2 : 1020

* * *

# protocol_description: Multiple escalating dose pharmacokinetic study of T-62 soft gelatin capsules (Example 12)
# Type: in vivo
# reported_conditions: both sexes, human, plasma, 200 mg; Day 1, single dose 2 × 100 mg (oral dosage form 4), healthy adults; median; n = 9
property_measured: Tmax (h)
Reply with just the number (in h).

Record Nc1sc2c(c1C(=O)c1ccc(Cl)cc1)CCCC2 . Reported Tmax: 1

* * *

# protocol_description: Single escalating dose, age and food-effect pharmacokinetic study of T-62 soft gelatin capsules (Example 11)
# Assay type: in vivo
# reported_conditions: human, plasma, po, 400 mg, Part A, young healthy subjects, fasted; single oral dose 4 × 100 mg (oral dosage form 4); median; n = 9
property_measured: Tmax
Kindly report the value followed by its unit.

Entry Nc1sc2c(c1C(=O)c1ccc(Cl)cc1)CCCC2 , Tmax reported as 2 h

* * *

# protocol_description: Single escalating dose, age and food-effect pharmacokinetic study of T-62 soft gelatin capsules (Example 11)
# Format: in vivo
# reported_conditions: human, plasma, po, 800 mg, Part A, young healthy subjects, fasted; single oral dose 8 × 100 mg (oral dosage form 4); median; n = 9
property_measured: Tmax
Report the figure along with its unit, number first.

Note to self: Tmax recorded for Nc1sc2c(c1C(=O)c1ccc(Cl)cc1)CCCC2 [T-62] was 3.5 h

* * *

# protocol_description: Single escalating dose, age and food-effect pharmacokinetic study of T-62 soft gelatin capsules (Example 11)
# Format: in vivo
# reported_conditions: human, plasma, po, 400 mg, Part B, elderly healthy subjects, fasted; single oral dose 4 × 100 mg (oral dosage form 4); arithmetic mean (SD); n = 12
# Text: A single-center, 3-part study: Parts A and B were randomized, double-blind, and placebo-controlled, and evaluated the safety, tolerability, and pharmacokinetics of single, escalating dose levels of a T-62 composition in soft gelatin capsules (oral dosage form 4) in young healthy subjects (Part A), and a single dose of a T-62 composition in soft gelatin capsules (oral dosage form 4) in elderly healthy subjects (Part B). […]
property_measured: AUC(0-inf) (ng·h/mL)
The answer is to be given in ng·h/mL; state only the numeric part.

// field: AUC(0-inf); key: Nc1sc2c(c1C(=O)c1ccc(Cl)cc1)CCCC2 ; value = 1290

* * *

# protocol_description: Multiple escalating dose pharmacokinetic study of T-62 soft gelatin capsules (Example 12)
# Type: in vivo
# reported_conditions: both sexes, human, plasma, po, 200 mg, Day 1, single dose 2 × 100 mg (oral dosage form 4), healthy adults; arithmetic mean (SD); n = 9
property_measured: AUC(0-inf) (ng·h/mL)
State the answer as a number, implicitly in ng·h/mL.

Memo: Nc1sc2c(c1C(=O)c1ccc(Cl)cc1)CCCC2 [T-62] , reported AUC(0-inf): 254

* * *

# protocol_description: Single escalating dose, age and food-effect pharmacokinetic study of T-62 soft gelatin capsules (Example 11)
# Format: in vivo
# reported_conditions: human, plasma, po, 400 mg, Part C, Fed, young healthy subjects; single oral dose 4 × 100 mg (oral dosage form 4); arithmetic mean (SD); n = 16; read-out: AUC0-48
# Description: A single-center, 3-part study: Parts A and B were randomized, double-blind, and placebo-controlled, and evaluated the safety, tolerability, and pharmacokinetics of single, escalating dose levels of a T-62 composition in soft gelatin capsules (oral dosage form 4) in young healthy subjects (Part A), and a single dose of a T-62 composition in soft gelatin capsules (oral dosage form 4) in elderly healthy subjects (Part B). […]
property_measured: AUC(0-t) (ng·h/mL)
All answers are understood in ng·h/mL, so give the number only.

Per the record, Nc1sc2c(c1C(=O)c1ccc(Cl)cc1)CCCC2 has AUC(0-t) of 884

* * *

# protocol_description: Multiple escalating dose pharmacokinetic study of T-62 soft gelatin capsules (Example 12)
# Type: in vivo
# reported_conditions: both sexes, human, plasma, po, 400 mg, Day 1, single dose 4 × 100 mg (oral dosage form 4), healthy adults; arithmetic mean (SD); n = 9
property_measured: Cmax (ng/mL)
Please give a number only; it is taken to be in ng/mL.

Per the records, this molecule ( Nc1sc2c(c1C(=O)c1ccc(Cl)cc1)CCCC2 ) has Cmax equal to 71.4

* * *

# protocol_description: Single escalating dose, age and food-effect pharmacokinetic study of T-62 soft gelatin capsules (Example 11)
# Assay type: in vivo
# reported_conditions: human, plasma, po, 400 mg, Part C, Fed, young healthy subjects; single oral dose 4 × 100 mg (oral dosage form 4); arithmetic mean (SD); n = 16
property_measured: AUC(0-inf) (ng·h/mL)
# output: bare number, implied unit ng·h/mL

The compound Nc1sc2c(c1C(=O)c1ccc(Cl)cc1)CCCC2 showed AUC(0-inf) equal to 933

* * *

# protocol_description: Single escalating dose, age and food-effect pharmacokinetic study of T-62 soft gelatin capsules (Example 11)
# Type: in vivo
# reported_conditions: human, plasma, po, 800 mg, Part A, young healthy subjects, fasted; single oral dose 8 × 100 mg (oral dosage form 4); arithmetic mean (SD); n = 9
property_measured: Cmax (ng/mL)
Numbers only; they are read as ng/mL.

Looking up Nc1sc2c(c1C(=O)c1ccc(Cl)cc1)CCCC2 , I found its Cmax recorded as 165

* * *

# protocol_description: Single escalating dose, age and food-effect pharmacokinetic study of T-62 soft gelatin capsules (Example 11)
# Format: in vivo
# reported_conditions: human, plasma, po, 400 mg, Part C, Fasted, young healthy subjects; single oral dose 4 × 100 mg (oral dosage form 4); median; n = 14
property_measured: Tmax
Value and unit, in that order.

Tmax recorded for this compound, Nc1sc2c(c1C(=O)c1ccc(Cl)cc1)CCCC2 , is 2.3 h

* * *

# protocol_description: Single escalating dose, age and food-effect pharmacokinetic study of T-62 soft gelatin capsules (Example 11)
# Assay type: in vivo
# reported_conditions: human, plasma, po, 1200 mg, Part A, young healthy subjects, fasted; single oral dose 12 × 100 mg (oral dosage form 4); median; n = 9
property_measured: Tmax (h)
Write the answer as a number in h, unit excluded.

For this compound ( Nc1sc2c(c1C(=O)c1ccc(Cl)cc1)CCCC2 ), measured Tmax is 3.5
